ASSAY SYSTEM: HIV Env, isolate CNE52 (HIV)
EXPERIMENT NOTES: cell-based or functional assay
QUANTITY KIND: IC80 (µg/ml) with constrains (µg/mL)
# unit: µg/mL | format: bare number

ePGDM9 (antibody, V domains shown) VH: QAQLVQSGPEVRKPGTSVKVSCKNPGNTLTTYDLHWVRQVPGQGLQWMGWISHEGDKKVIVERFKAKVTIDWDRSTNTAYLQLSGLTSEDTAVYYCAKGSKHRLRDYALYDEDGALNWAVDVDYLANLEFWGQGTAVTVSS VL: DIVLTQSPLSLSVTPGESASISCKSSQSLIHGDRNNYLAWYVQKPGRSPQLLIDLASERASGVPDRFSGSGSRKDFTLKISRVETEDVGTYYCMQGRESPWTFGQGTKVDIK	7.39

Consider the record given below.
Q: Quick one: IC80 (µg/ml) with constrains of ePGDM5 (antibody, V domains shown) VH: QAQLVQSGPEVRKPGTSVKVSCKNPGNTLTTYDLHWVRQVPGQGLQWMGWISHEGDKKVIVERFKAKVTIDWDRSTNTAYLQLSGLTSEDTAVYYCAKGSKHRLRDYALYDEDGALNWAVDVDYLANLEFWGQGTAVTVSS VL: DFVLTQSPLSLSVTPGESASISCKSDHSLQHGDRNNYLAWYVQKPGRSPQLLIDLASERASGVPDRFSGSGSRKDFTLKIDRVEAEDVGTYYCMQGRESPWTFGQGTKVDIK ?
A: 24.6
